# Test system: T-47D breast
# Protocol Notes: NCI-60 one-dose screen, 48 h (100 = growth as untreated, 0 = no growth, -100 = all killed)
# Cond: 10 µM unless noted
The panel holds about 83,000 compounds, 20% with a hit somewhere; the sample as a whole holds those more often.
Measured Metric: growth (%)
Numeric only. Scale: %

Examples with their reported growth follow.
Molecule	Assay System	Measurement Units	Numeric Readout
Cc1nc2ncccc2nc1Nc1ccc(S(=O)(=O)Nc2ccccn2)cc1	T-47D breast	%	91.2
CNc1ccc(Br)c2c1C(=O)c1ccccc1C2=O	T-47D breast	%	97.1
N#Cc1c(Nc2ccccc2)nc2n(c1=O)-c1ccccc1Sc1ccccc1-2	T-47D breast	%	55.9
COc1ccc(Nc2[nH]n3c(=O)cc(C)nc3c2C(N)=O)c(OC)c1	T-47D breast	%	79.8
Cn1c(=O)cc(NC(=O)CN2CCN(c3cc4c(cc3F)c(=O)c(C(=O)O)cn4C3CC3)CC2)[nH]c1=O	T-47D breast	%	107

The measured growth associated with COc1ccc(OC)c(C2OC(c3ccc4ccccc4c3O)=NN2C(C)=O)c1 (stereo not given) reads 63.7

The measured growth associated with C=C1C(=O)O[C@@H]2[C@@H]3O[C@@](C)(CC/C=C(\C)CCC[C@@H]2C)[C@H](O)C[C@@H]13 reads 50.9

====

# Test system: SK-MEL-28 melanoma
# Protocol Notes: NCI-60 one-dose screen, 48 h (100 = growth as untreated, 0 = no growth, -100 = all killed)
# Cond: 10 µM unless noted
# Protocol: Growth inhibition of the SK-MEL-28 human tumor cell line is measured as a screen for anti-cancer activity. Cells are grown in 96 well plates and exposed to the test compound for 48 hours. Compounds are tested at a single concentration, which is 10^-5 M for most compounds. The reported endpoint is percent growth (GI% or GIPRCNT), where numbers from 0 - 100% represent growth inhibition, and numbers from -100% - 0 represent cell death. For example, a value of 40 represents 60% growth inhibition. […]
Compounds without any hit were thinned out: in the full panel of roughly 83,000, 20% have a hit.
The entries below come with measured growth values attached.
Numeric only. Scale: %

Examples with their reported growth follow.
Compound	growth [%]
CC(C)NCCCNC1=C(Cl)C(=O)c2ccccc2C1=O	112
COc1ccc(Nc2nn3c(C)cc(C)nc3c2C(=O)Nc2ccc(C)cc2)c(OC)c1	94.4
Cc1ccc(C(=O)C2=Cc3cc4ccccc4n3Cc3cnnn32)cc1	102

The measured growth associated with COc1cc(C2C3=C(COC3=O)Nc3cc4c(cc32)OCO4)cc2c1OCO2 (stereo not given) reads 65.3

The measured growth associated with N=C(N)c1ccc(-c2ccc(-c3cncc4ccccc34)s2)cc1F reads 85.7

The measured growth associated with CC(C)(C)n1cc(-c2ccnc(NCCCNS(=O)(=O)c3cccc(F)c3)c2)c(-c2cccc(O)c2)n1 reads 47.2

The measured growth associated with O=C(Nc1ccc(NCCN2CCOCC2)nc1)c1ccc([N+](=O)[O-])cc1 reads 115

The measured growth associated with O=S(=O)(NCCCNc1nccc(-n2ccc3cccnc32)n1)c1cccc(C(F)(F)F)c1 reads 106

The measured growth associated with O=C1C(Cl)=C(Nc2ccccn2)C(=O)c2ccccc21 reads 34.8

The measured growth associated with Cn1ccc(Nc2nccc(Oc3ccc(C(=O)Nc4cccc(F)c4)c(Cl)c3)n2)c1 reads 96.6
